- STUDY_TARGET: CDK6/Cyclin D1 (Homo sapiens (Human), UniProt Q00534)
- Sequence (Q00534 whole entry): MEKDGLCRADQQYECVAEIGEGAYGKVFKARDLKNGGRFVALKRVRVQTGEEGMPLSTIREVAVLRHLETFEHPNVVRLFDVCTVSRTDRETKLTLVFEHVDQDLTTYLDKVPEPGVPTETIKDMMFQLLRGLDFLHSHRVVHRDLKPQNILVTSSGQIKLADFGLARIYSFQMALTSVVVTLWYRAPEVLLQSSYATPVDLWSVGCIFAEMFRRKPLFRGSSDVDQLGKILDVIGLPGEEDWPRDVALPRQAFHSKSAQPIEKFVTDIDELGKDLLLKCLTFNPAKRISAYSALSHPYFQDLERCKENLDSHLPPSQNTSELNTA
- Sequence (P24385 whole entry partner): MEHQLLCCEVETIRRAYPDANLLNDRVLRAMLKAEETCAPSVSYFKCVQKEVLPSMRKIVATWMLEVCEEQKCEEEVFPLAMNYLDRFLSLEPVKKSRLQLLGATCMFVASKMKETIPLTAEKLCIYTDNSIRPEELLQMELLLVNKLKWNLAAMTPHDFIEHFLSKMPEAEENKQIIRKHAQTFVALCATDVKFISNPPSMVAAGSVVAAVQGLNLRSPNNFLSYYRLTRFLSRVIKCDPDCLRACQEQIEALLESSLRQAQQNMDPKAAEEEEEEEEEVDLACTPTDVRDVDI
- PROCEDURE_TEXT: biochemical
- MEASUREMENT_CONTEXT: CDK6_Ki (nM), non-phosphorylated CDK6/Cyclin D1, 2 mM ATP, Morrison fit
ENDPOINT_NAME: Ki (nM)

{"columns": ["COMPOUND", "STUDY_TARGET", "ENDPOINT_NAME", "MEAS_VALUE"],
 "data": [
  ["Cc1cc2cnc(NC3CCN(S(=O)(=O)NC4CCOCC4)CC3)nc2n([C@@H]2CCC[C@@]2(C)O)c1=O (single isomer, unassigned)", "CDK6/Cyclin D1 (Homo sapiens (Human), UniProt Q00534)", "Ki", 1.06],
  ["COCCS(=O)(=O)N1CCC(Nc2ncc3ccc(=O)n(C4CCCC4)c3n2)CC1", "CDK6/Cyclin D1 (Homo sapiens (Human), UniProt Q00534)", "Ki", 0.76],
  ["Cc1cc2cnc(NC3CCN(S(=O)(=O)CC4CC4)CC3)nc2n([C@H]2CCC[C@]2(C)O)c1=O (single isomer, unassigned)", "CDK6/Cyclin D1 (Homo sapiens (Human), UniProt Q00534)", "Ki", 2.46]
]}

1. C[C@H]1CCC[C@H]1n1c(=O)c(CO)cc2cnc(NC3CCN(S(C)(=O)=O)CC3)nc21
2. C[C@@]1(O)CCC[C@H]1n1c(=O)c(CO)cc2cnc(NC3CCN(S(C)(=O)=O)CC3)nc21 (single isomer, unassigned)
Q: // pick larger Ki from pair: 1 vs 2 Mark your selection by writing its label.
A: 2
(2: 0.38 nM, 1: 0.08 nM)

###

- STUDY_TARGET: CDK6/Cyclin D1 (Homo sapiens (Human), UniProt Q00534)
- PROCEDURE_TEXT: biochemical
- MEASUREMENT_CONTEXT: CDK6_Ki (nM), non-phosphorylated CDK6/Cyclin D1, 2 mM ATP, Morrison fit
ENDPOINT_NAME: Ki (nM)

Solved entries (count: 3):
{"columns": ["COMPOUND", "STUDY_TARGET", "Ki (nM)"],
 "data": [
  ["C[C@]1(O)CCC[C@@H]1n1c(=O)ccc2cnc(NC3CCN(S(=O)(=O)CC4CC4)CC3)nc21 (single isomer, unassigned)", "CDK6/Cyclin D1 (Homo sapiens (Human), UniProt Q00534)", 2.72],
  ["Cc1cc2cnc(NC3CCN(S(C)(=O)=O)CC3)nc2n(C2CCCCC(O)C2)c1=O (single isomer, unassigned; isomer c) [Example 225]", "CDK6/Cyclin D1 (Homo sapiens (Human), UniProt Q00534)", 3.13],
  ["C[C@]1(O)CCC[C@@H]1n1c(=O)c(CO)cc2cnc(NC3CCN(S(C)(=O)=O)CC3)nc21 (single isomer, unassigned)", "CDK6/Cyclin D1 (Homo sapiens (Human), UniProt Q00534)", 3.62]
]}

I. CS(=O)(=O)N1CCC(Nc2ncc3cc(CC(=O)O)c(=O)n(C4CCCC4)c3n2)CC1
II. Cn1cc(S(=O)(=O)N2CCC(Nc3ncc4ccc(=O)n([C@H]5CCC[C@]5(C)O)c4n3)CC2)cn1 (single isomer, unassigned)
III. Cc1cc2cnc(NC3CCN(S(C)(=O)=O)CC3)nc2n([C@@H]2CCC[C@@H](O)C2)c1=O (single isomer, unassigned)
Q: Place the items in sequence of falling Ki. Quick reminder: the answer is the labels in the order asked.
A: II, III, I
